# system_under_test: isolated CBP bromodomain (Homo sapiens)
# Sequence (Q92793 1085-1192 limits assumed): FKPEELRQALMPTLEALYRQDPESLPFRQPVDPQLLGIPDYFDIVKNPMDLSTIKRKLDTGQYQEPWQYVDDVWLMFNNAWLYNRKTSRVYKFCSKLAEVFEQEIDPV
# experimental_details: NanoBRET, NanoLuc CBP bromodomain / Halo-tagged Histone H3.3
# measurement_parameters: read-out: cellular IC50, construct containing the bromodomain only
measurement_name: IC50

Tell me the measured IC50 of CCC(=O)N1CCOc2c(cc(-c3ccc(OC)c(OC)c3)cc2OC[C@H]2CCCN(C)C2)C1 , please.
600 nM

* * *

# system_under_test: CBP (Homo sapiens)
# Sequence (Q92793 1085-1192 limits assumed): as above
measurement_name: Kd (nM)
Use nM as the unit, but write only the number.

Tell me the measured Kd of CCC(=O)N1CCOc2c(cc(-c3ccc(OC)c(OC)c3)cc2OC[C@H]2CCCN(C)C2)C1 [I-CBP112] , please.
142
